# credit: the supplement of paper PMC10567573

B1: OAS1 (parent)
chain: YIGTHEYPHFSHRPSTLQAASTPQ

variants of: B1; experiment: protein stability index of a GFP-peptide fusion (GPS, HEK-293T) (PSI 1-6); higher = more stable; settings: c terminus: a fixed tail appended;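 note: lentivirally expressed fusions sorted by FACS into six bins by GFP to DsRed ratio, PSI derived from sequencing read proportions per bin multiplied by bin number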
ENDPOINT LABEL: protein stability index
Answers are plain numbers.

{"SEQUENCE ENTRY": "YIGTHEYPHFSRRPSTLQAASTPQ [H12R]", "protein stability index": 2.55}
{"SEQUENCE ENTRY": "YIGTHEYPHFSHRPSTLQAASTAQ [P23A]", "protein stability index": 2.14}
{"SEQUENCE ENTRY": "YIGTHEYPHFSHRPSTLQAMSTPQ [A20M]", "protein stability index": 1.93}
{"SEQUENCE ENTRY": "YIGTHENPHFSHRPSTLQAASTPQ [Y7N]", "protein stability index": 2.15}
{"SEQUENCE ENTRY": "YIGTHEYPHFSHRPSTLQIASTPQ [A19I]", "protein stability index": 2.04}

// batch mode: one protein stability index value per listed entry
1. YIGFHEYPHFSHRPSTLQAASTPQ [T4F]
2. YIGTHEYPHFSHRPSTLQAASEPQ [T22E]
3. YIGTHEYPHFSHRPSTRQAASTPQ [L17R]

Completion:
1. 2.11
2. 1.8
3. 2

// batch mode: one protein stability index value per listed entry
1. YIGTLEYPHFSHRPSTLQAASTPQ [H5L]
2. YIGTHEYPCFSHRPSTLQAASTPQ [H9C]
3. YIGTHEYPHFSHRPSTLQAASTFQ [P23F]
4. YIGTHEVPHFSHRPSTLQAASTPQ [Y7V]
5. YIGTHEYPHFSHRPSTLQAACTPQ [S21C]
6. YIGTHEYPHFSHRPSTLQAASTPH [Q24H]
7. YIGTHEYPHFSHRPSTLGAASTPQ [Q18G]
8. YIMTHEYPHFSHRPSTLQAASTPQ [G3M]

Completion:
2.12
1.48
1.72
2.12
2.77
2.15
2.06
1.86

// batch mode: one protein stability index value per listed entry
1. YIGTHEYPHFSHRPSTLRAASTPQ [Q18R]
2. YIGTHEYPHFSHRPYTLQAASTPQ [S15Y]
3. YIGTHEYTHFSHRPSTLQAASTPQ [P8T]
4. YIGTHEYPHFSHRWSTLQAASTPQ [P14W]
5. YIGTHEYPHFSHRPSFLQAASTPQ [T16F]
6. YIGTHEYDHFSHRPSTLQAASTPQ [P8D]
7. YIGTHEYPHFSHRPSTLQATSTPQ [A20T]
8. YQGTHEYPHFSHRPSTLQAASTPQ [I2Q]

Completion:
1.95
1.79
1.54
2.81
1.92
2.35
2.04
2.59

// batch mode: one protein stability index value per listed entry
1. YIGTHEYPHFSHRPVTLQAASTPQ [S15V]
2. YIGTHEYPHFSHRPSTLFAASTPQ [Q18F]
3. YIGTHFYPHFSHRPSTLQAASTPQ [E6F]
4. YIWTHEYPHFSHRPSTLQAASTPQ [G3W]

Completion:
2
2.25
3.8
1.83
